- procedure text: protein stability index of a GFP-peptide fusion (GPS, HEK-293T) (PSI 1-6); higher = more stable;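 also: 24-mer peptide tiles fused after GFP, lentivirally expressed, FACS-sorted into six equal bins by GFP/DsRed ratio, decoded by Illumina sequencing, PSI is the read-weighted mean bin number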
- reported conditions: treatment: DMSO; c terminus: a fixed tail appended
Here, each record is paired with measured protein stability index data.
Reply with the value as a number alone.

item sequence | protein stability index
SLGKARTAQVQKDARIGEAEAKRD [FLOT1] | 5.31
FVSKIRAVINDIANLPVPTIAAID [AUH] | 2.42
GHQPGTGPGDGPPEIAQNFSAPDP [SMTNL2] | 5.23

Q. GET /values?readout=protein stability index&item= ENPETDLHVNPKKQTIGNSCKACG [EIF5]
A. 4.44

Q. Could you do the same for LFIQKEEQLQQILKRKNKQAFLDE [MNAT1] , please?
A. 2.5

Q. // next record QKEQQERLREAAALGDIREVQKLV [ANKRD40]
A. 4.67

Q. What do you get for LQTSLENGTRVQEEPELVFTLGDC [FKBP8] ?
A. 4.34

Q. # iterate: NSSPRVMQRKQSLGKPDQKDLNEN [DLC1]
A. 5.09

Q. What would you report for CNCALEELRLVFGPLGDQLHAQLR [ELF3] ?
A. 2.46

Q. Consider next the sequence REIALAKKHGTQNKRAALQALKRK [CHMP4C] in the same way.
A. 4.04

Q. Next sequence: KTHSQELMKESLQTGDLLSTFHTI [PLAGL1]
A. 3.49
